Biological target: the molecule itself
Test: SEC; Superdex 200 10/300, 0.5 ml min^−1, 1 mg ml^−1 protein, 100 μl injected; 50 mM NaCl, 50 mM KCl, 50 mM K2HPO4 pH 7.4; 30 °C; fractions as areas under the peaks; peaks also viewed by TEM
Measure Name: fraction of the protein in I peak of the elution profile (%)
Numbers only, in %.

Record excerpt, results attached:
AlIbpAΔN12 (domain or fragment, Acholeplasma laidlawii, UniProt A9NFB2 13-137, looked up, AlIbpA of Acholeplasma laidlawii PG8 lacking the first 12 amino acid residues; source: E. coli BL21(DE3), purified (Ni-NTA); not shown: His6, N-terminal, kept) DDFFEDFNVLNPVTTSNLMRTDIKETQNGYSLSVELPGFKKEDVKVSLEDGYLTIEAHTSKNSETKDQATKYIRKERYEGTMKRSYYVGNLHLDEINGTFENGMLHIELPKETKKEPEKRYLELK ... 88
AlIbpASEPΔN12 (domain or fragment, Acholeplasma laidlawii, UniProt A9NFB2 13-137, looked up, AlIbpA of Acholeplasma laidlawii PG8 lacking 12 N-terminal amino acids and with LEL substituted by SEP (L134S, L136P); source: E. coli BL21(DE3), purified (Ni-NTA); not shown: His6, N-terminal, kept) DDFFEDFNVLNPVTTSNLMRTDIKETQNGYSLSVELPGFKKEDVKVSLEDGYLTIEAHTSKNSETKDQATKYIRKERYEGTMKRSYYVGNLHLDEINGTFENGMLHIELPKETKKEPEKRYSEPK ... 2

In: Identify measured fraction of the protein in I peak of the elution profile associated with AlIbpAΔN25 (domain or fragment, Acholeplasma laidlawii, UniProt A9NFB2 26-137, looked up, AlIbpA of Acholeplasma laidlawii PG8 with 25 N-terminal amino acids removed (lacks both (W/F)(D/F)PF-like motifs); source: E. coli BL21(DE3), purified (Ni-NTA); not shown: His6, N-terminal, kept) TTSNLMRTDIKETQNGYSLSVELPGFKKEDVKVSLEDGYLTIEAHTSKNSETKDQATKYIRKERYEGTMKRSYYVGNLHLDEINGTFENGMLHIELPKETKKEPEKRYLELK
Out: 77
